- Target entity: Human CD137 ECD (human)
- Sequence (chain, as listed by the source limits assumed): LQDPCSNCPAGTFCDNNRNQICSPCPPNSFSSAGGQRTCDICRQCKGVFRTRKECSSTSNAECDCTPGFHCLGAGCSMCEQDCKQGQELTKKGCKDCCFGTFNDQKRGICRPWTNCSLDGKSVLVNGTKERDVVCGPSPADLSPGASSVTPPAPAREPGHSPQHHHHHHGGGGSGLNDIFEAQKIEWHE
- Assay notes: SPR, vs parent H183/L072
Test readout: fold change of affinity
Write your answer as a measured quantity: the number, then the unit.

State the recorded fold change of affinity for this entry: dBBDu183H L100dG / dBBDu072L (antibody, name in Kabat numbering, V domains shown) VH: QVQLVESGGGLVQPGRSLRLSCAASGFTFSNAWMHWVRQAPGKGLEWVAQIKDKGNAYAAYYAPSVKGRFTISRDDSKNSIYLQMNSLKTEDTAVYYCHYVHYASASTVGPAFGVDAWGQGTTVTVSS VL: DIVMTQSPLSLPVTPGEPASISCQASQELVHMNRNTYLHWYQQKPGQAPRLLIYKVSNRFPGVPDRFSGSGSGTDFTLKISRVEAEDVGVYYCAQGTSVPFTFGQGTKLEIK
0 fold

Could you share which fold change of affinity value was measured for dBBDu183H S100aN / dBBDu072L (antibody, name in Kabat numbering, V domains shown) VH: QVQLVESGGGLVQPGRSLRLSCAASGFTFSNAWMHWVRQAPGKGLEWVAQIKDKGNAYAAYYAPSVKGRFTISRDDSKNSIYLQMNSLKTEDTAVYYCHYVHYASANTVLPAFGVDAWGQGTTVTVSS VL: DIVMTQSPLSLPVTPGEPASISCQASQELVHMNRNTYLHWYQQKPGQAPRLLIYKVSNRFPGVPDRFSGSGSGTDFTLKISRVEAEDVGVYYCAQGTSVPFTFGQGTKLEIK ?
0 fold

# query: fold change of affinity of entry dBBDu183H Y97H / dBBDu072L (antibody, name in Kabat numbering, V domains shown) VH: QVQLVESGGGLVQPGRSLRLSCAASGFTFSNAWMHWVRQAPGKGLEWVAQIKDKGNAYAAYYAPSVKGRFTISRDDSKNSIYLQMNSLKTEDTAVYYCHYVHHASASTVLPAFGVDAWGQGTTVTVSS VL: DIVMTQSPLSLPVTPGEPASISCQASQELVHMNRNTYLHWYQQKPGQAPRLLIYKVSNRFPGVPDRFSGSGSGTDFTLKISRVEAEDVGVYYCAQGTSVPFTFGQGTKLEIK
0 fold
